What pIC50 was measured for each of the following?
# Tgt: CRBN/DDB1 (Homo sapiens (Human), UniProt Q96SW2)
# Sequence (Q96SW2 whole entry): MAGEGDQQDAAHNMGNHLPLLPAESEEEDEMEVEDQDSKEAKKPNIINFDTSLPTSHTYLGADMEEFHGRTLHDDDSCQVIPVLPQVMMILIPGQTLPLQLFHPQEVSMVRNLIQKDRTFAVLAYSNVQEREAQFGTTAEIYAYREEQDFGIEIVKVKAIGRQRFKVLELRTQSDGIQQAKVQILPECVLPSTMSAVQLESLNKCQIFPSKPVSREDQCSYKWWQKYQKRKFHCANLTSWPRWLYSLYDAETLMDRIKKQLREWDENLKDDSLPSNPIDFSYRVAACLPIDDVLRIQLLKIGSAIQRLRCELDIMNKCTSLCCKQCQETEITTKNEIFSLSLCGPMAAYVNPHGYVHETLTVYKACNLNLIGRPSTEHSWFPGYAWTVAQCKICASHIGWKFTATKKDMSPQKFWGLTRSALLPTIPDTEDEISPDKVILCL
# Sequence (Q16531 whole entry partner): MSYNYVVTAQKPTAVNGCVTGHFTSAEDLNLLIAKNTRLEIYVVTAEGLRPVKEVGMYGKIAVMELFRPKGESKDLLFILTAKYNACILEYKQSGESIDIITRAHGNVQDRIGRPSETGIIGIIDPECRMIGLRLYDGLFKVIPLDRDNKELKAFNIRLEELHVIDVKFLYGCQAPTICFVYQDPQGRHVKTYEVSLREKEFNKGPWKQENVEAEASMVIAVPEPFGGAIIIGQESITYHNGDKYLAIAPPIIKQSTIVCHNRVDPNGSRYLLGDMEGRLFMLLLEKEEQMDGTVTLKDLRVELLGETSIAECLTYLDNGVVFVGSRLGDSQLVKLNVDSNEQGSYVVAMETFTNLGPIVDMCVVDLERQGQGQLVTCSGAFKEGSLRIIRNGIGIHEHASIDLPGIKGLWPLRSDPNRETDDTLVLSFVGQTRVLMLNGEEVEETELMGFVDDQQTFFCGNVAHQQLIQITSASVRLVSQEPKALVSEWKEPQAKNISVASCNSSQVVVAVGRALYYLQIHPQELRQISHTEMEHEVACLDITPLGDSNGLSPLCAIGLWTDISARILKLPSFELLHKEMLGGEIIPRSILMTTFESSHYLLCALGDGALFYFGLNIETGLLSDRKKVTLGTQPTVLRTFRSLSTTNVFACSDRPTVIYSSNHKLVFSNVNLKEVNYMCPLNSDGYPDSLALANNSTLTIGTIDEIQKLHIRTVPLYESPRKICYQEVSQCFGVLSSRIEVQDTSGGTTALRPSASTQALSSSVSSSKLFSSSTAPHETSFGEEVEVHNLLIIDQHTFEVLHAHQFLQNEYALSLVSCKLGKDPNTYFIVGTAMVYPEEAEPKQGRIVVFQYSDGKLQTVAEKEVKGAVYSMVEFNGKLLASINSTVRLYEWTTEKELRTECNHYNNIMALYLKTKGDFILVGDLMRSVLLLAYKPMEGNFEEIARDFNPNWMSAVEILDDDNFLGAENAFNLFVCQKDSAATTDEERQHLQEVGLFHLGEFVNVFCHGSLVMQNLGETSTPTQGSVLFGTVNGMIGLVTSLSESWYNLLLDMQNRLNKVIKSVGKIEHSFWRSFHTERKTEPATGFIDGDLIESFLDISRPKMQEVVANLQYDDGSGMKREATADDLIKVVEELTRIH
# Assay name: HTRF binding assay to CRBN/DDB1
# Run parameters: read-out: CRBN HTRF IC50
pIC50: −log10 of the molar value.

Enquiry: Provide value of pIC50 for this record tested with CRBN/DDB1 (Homo sapiens (Human), UniProt Q96SW2): O=C1CCC(N2Cc3cc4c(cc3C2=O)OC[C@@H]2CN(CC3CCC5(CC3)CN(c3ccc([C@@H]6c7ccc(O)cc7OC[C@@H]6c6ccccc6)cc3)C5)CCN42)C(=O)N1 (stereo partly shown) [Compound A63]
Return: 5.30 to 6.30

Enquiry: Record: O=C1CCC(Nc2ccc(C34CCN(CC5COC6(CCN(c7ccc([C@@H]8c9ccc(O)cc9OC[C@@H]8c8ccccc8)cc7F)CC6)C5)CC3C4(F)F)cc2)C(=O)N1 (stereo partly shown) [Compound A159]
Return: 5.30 to 6.30

Enquiry: Record: O=C1CCC(Nc2ccc(C34CCN(CC5COC6(CCN(c7ccc([C@H]8c9ccc(O)cc9OC[C@H]8c8ccccc8)cc7F)CC6)C5)CC3C4(F)F)cc2)C(=O)N1 (stereo partly shown) [Compound A156]
Return: 5.30 to 6.30

Enquiry: Record: O=C1CCC(Nc2ccc(N3CCN(CC4CCN(c5ccc([C@@H]6c7ccc(O)cc7OC[C@@H]6c6ccccc6)cc5F)CC4)CC3)c(F)c2)C(=O)N1 (stereo partly shown) [Compound A29]
Return: 5.30 to 6.30

Enquiry: Record: O=C1CCC(N2C(=O)c3cc4c(cc3C2=O)CN(C(=O)CN2CC3(CCN(c5ccc([C@@H]6c7ccc(O)cc7OC[C@@H]6c6ccccc6)cc5)CC3)C2)C4)C(=O)N1 (stereo partly shown) [Compound A32]
Return: 5.30 to 6.30

Enquiry: Record: O=C1CC[C@H](N2Cc3c(ccc4c3OC[C@H]3CN(CC5CC6(CCN(c7ccc([C@@H]8c9ccc(O)cc9OC[C@@H]8c8ccccc8)cc7)CC6)C5)CCN43)C2=O)C(=O)N1 (single isomer, unassigned) [Compound A37]
Return: > 7.30

Enquiry: Record: COc1cc(N2CCC(CN3CCC4(CC3)COc3cc5c(cc34)CN(C3CCC(=O)NC3=O)C5=O)CC2)ccc1[C@H]1c2ccc(O)cc2OC[C@H]1c1ccccc1 (stereo partly shown) [Compound A136]
Return: > 7.30

Enquiry: Record: O=C1CCC(N2Cc3cc4c(cc3C2=O)CN(C(=O)C2CCN(C3CCN(c5ccc([C@H]6c7ccc(O)cc7OC[C@H]6c6ccccc6)cc5)CC3)CC2)C4)C(=O)N1 (single isomer, unassigned) [Compound A80]
Return: 5.30 to 6.30

Enquiry: Record: COc1cccc([C@H]2COc3cc(O)ccc3[C@H]2c2ccc(N3CCC(CN4CCN5c6ccc7c(c6OC[C@H]5C4)CN(C4CCC(=O)NC4=O)C7=O)CC3)cc2)c1 (single isomer, unassigned) [Compound A33]
Return: > 7.30

Enquiry: Record: COc1ccc([C@@H]2COc3cc(O)ccc3[C@@H]2c2ccc(N3CCC(CN4CCN5c6ccc7c(c6OC[C@H]5C4)CN(C4CCC(=O)NC4=O)C7=O)CC3)cc2)cc1 (single isomer, unassigned) [Compound A15]
Return: 6.30 to 7.30

====

# Tgt: ER (Homo sapiens (Human), UniProt P03372)
# Sequence (P03372 whole entry): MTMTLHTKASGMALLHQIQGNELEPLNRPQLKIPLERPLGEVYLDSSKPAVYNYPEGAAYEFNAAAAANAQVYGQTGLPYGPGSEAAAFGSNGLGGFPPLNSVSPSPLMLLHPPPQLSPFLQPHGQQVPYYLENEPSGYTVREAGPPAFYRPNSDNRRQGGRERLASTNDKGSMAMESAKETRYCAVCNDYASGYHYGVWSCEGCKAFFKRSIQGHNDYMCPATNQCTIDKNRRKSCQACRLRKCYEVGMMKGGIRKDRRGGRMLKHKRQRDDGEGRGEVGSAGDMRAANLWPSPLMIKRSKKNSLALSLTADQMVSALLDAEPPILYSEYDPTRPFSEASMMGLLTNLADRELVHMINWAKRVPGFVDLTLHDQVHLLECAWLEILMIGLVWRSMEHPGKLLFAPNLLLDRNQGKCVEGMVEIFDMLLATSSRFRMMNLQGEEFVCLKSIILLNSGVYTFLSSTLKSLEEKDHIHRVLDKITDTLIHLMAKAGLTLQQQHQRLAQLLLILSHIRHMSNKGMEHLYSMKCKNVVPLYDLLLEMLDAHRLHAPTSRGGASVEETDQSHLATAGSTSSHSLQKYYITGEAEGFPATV
# Assay name: In-cell western (ICW) ER degradation assay in MCF-7 cells
# Format: cell-based
# Run parameters: MCF7, maximal ER degradation, MCF7, 16 hrs
Counter-ions that a name gives are not always drawn.
Outcome measure: Dmax

Enquiry: What value of measured Dmax is listed for O=C1CCC(N2C(=O)c3cc4c(cc3C2=O)CN(C(=O)CN2CCC3(CC2)CN(c2ccc([C@@H]5c6ccc(O)cc6OC[C@@H]5c5ccccc5)cc2)C3)C4)C(=O)N1 (stereo partly shown) ?
Return: 25 to 50%

Enquiry: Record: O=C1CCC(N2Cc3cc(N4CCN(CC5CCN(c6ccc([C@@H]7c8ccc(O)cc8OC[C@@H]7c7ccccc7)cc6)CC5)CC4)ccc3C2=O)C(=O)N1 (single isomer, unassigned)
Return: 50 to 75%

Enquiry: Record: COc1cc(C(=O)NC2CCC(=O)NC2=O)ncc1N1CCN(CC2CC3(CCN(c4ccc([C@H]5c6ccc(O)cc6OC[C@H]5c5ccccc5)cc4)CC3)C2)CC1 (single isomer, unassigned)
Return: 50 to 75%

Enquiry: Record: O=C1CCC(Nc2ccc(C34CCN(CC5COC6(CCN(c7ccc([C@@H]8c9ccc(O)cc9OC[C@@H]8c8ccccc8)cc7F)CC6)C5)CC3C4(F)F)cc2)C(=O)N1 (stereo partly shown)
Return: 25 to 50%

Enquiry: Record: O=C1CCC(Nc2ccc(C34CCN(CC5COC6(CCN(c7ccc([C@H]8c9ccc(O)cc9OC[C@H]8c8ccccc8)cc7F)CC6)C5)CC3C4(F)F)cc2)C(=O)N1 (stereo partly shown)
Return: < 25%

Enquiry: Record: O=C1CCC(N2C(=O)c3cc4c(cc3C2=O)CN(C(=O)CN2CC3(CCN(c5ccc([C@H]6c7ccc(O)cc7OC[C@H]6c6ccccc6)cc5)CC3)C2)C4)C(=O)N1 (single isomer, unassigned) [Compound A55, formate]
Return: < 25%

Enquiry: Record: O=C1CC[C@@H](N2Cc3cc4c(cc3C2=O)OC[C@@H]2CN(CC3CC5(CCN(c6ccc([C@H]7c8ccc(O)cc8OC[C@H]7c7ccccc7)cc6)CC5)C3)CCN42)C(=O)N1
Return: 50 to 75%

Enquiry: Record: O=C1CC[C@@H](N2Cc3c(ccc4c3OCC43CCN(CC4CCC5(CC4)CN(c4ccc([C@H]6c7ccc(O)cc7OC[C@H]6c6ccccc6)cc4)C5)CC3)C2=O)C(=O)N1
Return: 50 to 75%

Enquiry: Record: O=C1CCC(N2Cc3c(ccc4c3OCC43CCN(CC4CC5(CCN(c6ccc([C@@H]7c8ccc(O)cc8OC[C@@H]7c7ccccc7)cc6)CC5)C4)CC3)C2=O)C(=O)N1 (stereo partly shown)
Return: 50 to 75%

Enquiry: Record: COc1cc(N2CCC(CN3CCC4(CC3)COc3c4ccc4c3CN(C3CCC(=O)NC3=O)C4=O)CC2)ccc1[C@H]1c2ccc(O)cc2OC[C@H]1c1ccccc1 (stereo partly shown)
Return: 25 to 50%

====

# Tgt: ER (Homo sapiens (Human))
# Assay name: In-cell western (ICW) ER degradation assay in MCF-7 cells
# Format: cell-based
# Run parameters: ER degradation, MCF7, 16 hrs
Outcome measure: DC50

Enquiry: What value of measured DC50 is listed for O=C1CCC(N2C(=O)c3cc4c(cc3C2=O)CN(C(=O)C2CCN(C3CCN(c5ccc([C@@H]6c7ccc(O)cc7OC[C@@H]6c6ccccc6)cc5)CC3)CC2)C4)C(=O)N1 (single isomer, unassigned) ?
Return: < 1 nM

Enquiry: Record: COc1cc(C(=O)NC2CCC(=O)NC2=O)ncc1N1CCN(CC2CCC3(CC2)CN(c2ccc([C@H]4c5ccc(O)cc5OC[C@H]4c4ccccc4)cc2)C3)CC1 (mixture of isomers)
Return: < 1 nM

Enquiry: Record: O=C1CCC(N2Cc3c(ccc4c3OC[C@H]3CN(CC5CCN(c6ncc([C@H]7c8ccc(O)cc8OC[C@H]7c7ccccc7)cn6)CC5)CCN43)C2=O)C(=O)N1 (single isomer, unassigned)
Return: 1 to 10 nM

Enquiry: Record: COc1cc(N2CCC(CN3CCN4c5ccc6c(c5OC[C@@H]4C3)CN([C@@H]3CCC(=O)NC3=O)C6=O)CC2)ccc1[C@H]1c2ccc(O)cc2OC[C@H]1c1ccccc1 (single isomer, unassigned)
Return: < 1 nM

Enquiry: Record: COc1cccc([C@@H]2COc3cc(O)ccc3[C@@H]2c2ccc(N3CCC(CN4CCN5c6ccc7c(c6OC[C@H]5C4)CN(C4CCC(=O)NC4=O)C7=O)CC3)cc2)c1 (single isomer, unassigned)
Return: 1 to 10 nM

Enquiry: Record: O=C1CC[C@@H](N2Cc3cc4c(cc3C2=O)OCC2CN(CC3CCC5(CC3)CN(c3ccc([C@H]6c7ccc(O)cc7OC[C@H]6c6ccccc6)cc3)C5)CCN42)C(=O)N1 (stereo in doubt)
Return: 1 to 10 nM

Enquiry: Record: O=C1CC[C@@H](N2Cc3cc4c(cc3C2=O)OC[C@H]2CN(CC3COC5(CCN(c6ccc(C7c8ccc(O)cc8OCC7c7ccccc7)cc6)CC5)C3)CCN42)C(=O)N1 (stereo in doubt)
Return: < 1 nM

Enquiry: Record: COc1ccc([C@H]2COc3cc(O)ccc3[C@H]2c2ccc(N3CCC(CN4CCN5c6ccc7c(c6OC[C@H]5C4)CN(C4CCC(=O)NC4=O)C7=O)CC3)cc2)cc1 (single isomer, unassigned)
Return: < 1 nM

Enquiry: Record: O=C1CCC(N2Cc3c(ccc4c3OCC43CCN(CC4COC5(CCN(c6ccc([C@H]7c8ccc(O)cc8OC[C@H]7c7ccccc7)cc6)CC5)C4)CC3)C2=O)C(=O)N1 (stereo partly drawn)
Return: 1 to 10 nM
